test: NCI Yeast Anticancer Drug Screen. Data for the rad50 strain (AID 155);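 also: 0% = growth of vehicle-only cultures of the same strain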; conditions: S. cerevisiae rad50 strain growth inhibition; at 50.0 µM (retest, dose inferred, filed as 5.0); active compounds read high
This is part of a sample that, as a whole, favours compounds with a hit. Of some 79,000 tested, about 15% had one in any assay. Calls of active or inactive are those of the source. Rule as the data show it: active = growth inhibition above about 70%; inactive = the rest.
assay-metric: growth inhibition

growth inhibition lookup needed for `CC(C)(C)OOC(=O)c1ccccc1` , thanks.
99% (active)

Returns the measured growth inhibition for the input molecule. Input: CCC1CCCCN1CC(C(C)=O)C(c1ccccc1)c1c(O)c2ccccc2oc1=O (stereo unspecified)
13% (inactive)

----------
experiment: NCI Yeast Anticancer Drug Screen. Data for the mec2-1 strain (AID 157); settings: S. cerevisiae mec2-1 strain, at 5.0 µM (retest, dose inferred, filed as 0.5), active compounds read high
This is part of a sample that, as a whole, favours compounds with a hit. Of some 79,000 tested, about 15% had one in any assay.
growth inhibition values by entry
# unit: % | format: bare number

compound: O=P1(NCCCl)OC(c2ccccc2)=CCN1CCCl (centres undefined)
assay-metric: growth inhibition
numeric-value: -5

compound: ClCC[N+]12CC[N+](CCCl)(CC1)C2
assay-metric: growth inhibition
numeric-value: 50

compound: CCN1/C(=C\c2ccc3cc(C)ccc3[n+]2CC)[Se]c2ccccc21
assay-metric: growth inhibition
numeric-value: 100

Need growth inhibition of COC1OC(COC(C)=O)C(OC(C)=O)C(OC(C)=O)[CH]1[Hg][I] (centres undefined) , thanks.
99

// returns reported growth inhibition for input `CCc1ccc2c(c1)N(CCCN(CCCl)CCCl)c1ccccc1S2`
44

// data source = PubChem BioAssay (NCI)
